# target entity: recombinant human non-muscle myosin 2 NM2C (Homo sapiens, UniProt Q7Z406)
# procedure details: actomyosin steady state ATPase measurement, NM2C
# Format: biochemical
# experimental setup: maximum value of inhibition of ATPase activity
Listing of recorded % inhibition. complete NM2C by entry.
Number only, in %; omit the unit.

Worked examples, 2 compounds total:
N#CCc1ccc(N2CC[C@@]3(O)C(=O)c4ccsc4N=C23)cc1	77
Cc1cc2c(s1)N=C1N(c3ccc(OC(F)(F)F)cc3)CCC1(O)C2=O (stereo not shown)	88

**Query** Look up % inhibition. complete NM2C: Cc1cc2c(s1)N=C1N(c3ccc(CO)cc3)CCC1(O)C2=O (stereo not shown)
**Result** 84

**Query** # repeat for Cc1cc2c(s1)N=C1N(c3ccc(C#N)cc3)CCC1(O)C2=O (stereo not shown)
**Result** 93

====

# Tested on: isolated rabbit skeletal muscle myosin (skeletal)
# procedure details: actomyosin steady state ATPase measurement, skeletal muscle myosin
# Assay type: biochemical
# experimental setup: 5 μM (10 μM if racemate); ATPase activity
A collection of compounds and their measured % inhibition at 5 μM (or 10 μM if racemate) Skeletal

Example entries begin here.
Cc1cc2c(s1)N=C1N(c3ccc(N(C)C)cc3)CCC1(O)C2=O (stereo not drawn)	93%
Cc1cc2c(s1)N=C1N(c3ccc(C#N)cc3)CCC1(O)C2=O (stereo not drawn)	94%

Proceeding to the next compound to report its % inhibition at 5 μM (or 10 μM if racemate) Skeletal.
**Query** Which % inhibition at 5 μM (or 10 μM if racemate) Skeletal reading was recorded for the compound "CN(C)c1ccc(N2CC[C@@]3(O)C(=O)c4ccsc4N=C23)cc1" ?
**Result** 80%

====

# target entity: recombinant human non-muscle myosin 2 NM2C (Homo sapiens, UniProt Q7Z406)
# procedure details: actomyosin steady state ATPase measurement, NM2C
# Format: biochemical
# experimental setup: concentration required for semi-maximal inhibition of ATPase
Below is a list of entries, each paired with its recorded IC50 value.
Report the figure in µM without appending any unit label.

Completed entries (count: 4):
CC(=O)c1ccc(N2CC[C@@]3(O)C(=O)c4ccsc4N=C23)cc1	2.9
Cc1cc2c(s1)N=C1N(c3ccc(C#N)cc3)CCC1(O)C2=O (stereo not drawn)	1.2
O=C1c2ccsc2N=C2N(c3ccc(CO)cc3)CC[C@@]12O	23
Cc1cc2c(s1)N=C1N(c3ccc(OC(F)(F)F)cc3)CCC1(O)C2=O (stereo not drawn)	3

Next:
**Query** I have this compound here, O=C1c2ccsc2N=C2N(c3ccccc3)CCC12O (stereo not drawn) , and I need its recorded IC50.
**Result** 9.3

====

# target entity: recombinant Dictyostelium miozin (Dictyostelium) (Dictyostelium discoideum, UniProt P08799)
# Sequence (P08799 whole entry): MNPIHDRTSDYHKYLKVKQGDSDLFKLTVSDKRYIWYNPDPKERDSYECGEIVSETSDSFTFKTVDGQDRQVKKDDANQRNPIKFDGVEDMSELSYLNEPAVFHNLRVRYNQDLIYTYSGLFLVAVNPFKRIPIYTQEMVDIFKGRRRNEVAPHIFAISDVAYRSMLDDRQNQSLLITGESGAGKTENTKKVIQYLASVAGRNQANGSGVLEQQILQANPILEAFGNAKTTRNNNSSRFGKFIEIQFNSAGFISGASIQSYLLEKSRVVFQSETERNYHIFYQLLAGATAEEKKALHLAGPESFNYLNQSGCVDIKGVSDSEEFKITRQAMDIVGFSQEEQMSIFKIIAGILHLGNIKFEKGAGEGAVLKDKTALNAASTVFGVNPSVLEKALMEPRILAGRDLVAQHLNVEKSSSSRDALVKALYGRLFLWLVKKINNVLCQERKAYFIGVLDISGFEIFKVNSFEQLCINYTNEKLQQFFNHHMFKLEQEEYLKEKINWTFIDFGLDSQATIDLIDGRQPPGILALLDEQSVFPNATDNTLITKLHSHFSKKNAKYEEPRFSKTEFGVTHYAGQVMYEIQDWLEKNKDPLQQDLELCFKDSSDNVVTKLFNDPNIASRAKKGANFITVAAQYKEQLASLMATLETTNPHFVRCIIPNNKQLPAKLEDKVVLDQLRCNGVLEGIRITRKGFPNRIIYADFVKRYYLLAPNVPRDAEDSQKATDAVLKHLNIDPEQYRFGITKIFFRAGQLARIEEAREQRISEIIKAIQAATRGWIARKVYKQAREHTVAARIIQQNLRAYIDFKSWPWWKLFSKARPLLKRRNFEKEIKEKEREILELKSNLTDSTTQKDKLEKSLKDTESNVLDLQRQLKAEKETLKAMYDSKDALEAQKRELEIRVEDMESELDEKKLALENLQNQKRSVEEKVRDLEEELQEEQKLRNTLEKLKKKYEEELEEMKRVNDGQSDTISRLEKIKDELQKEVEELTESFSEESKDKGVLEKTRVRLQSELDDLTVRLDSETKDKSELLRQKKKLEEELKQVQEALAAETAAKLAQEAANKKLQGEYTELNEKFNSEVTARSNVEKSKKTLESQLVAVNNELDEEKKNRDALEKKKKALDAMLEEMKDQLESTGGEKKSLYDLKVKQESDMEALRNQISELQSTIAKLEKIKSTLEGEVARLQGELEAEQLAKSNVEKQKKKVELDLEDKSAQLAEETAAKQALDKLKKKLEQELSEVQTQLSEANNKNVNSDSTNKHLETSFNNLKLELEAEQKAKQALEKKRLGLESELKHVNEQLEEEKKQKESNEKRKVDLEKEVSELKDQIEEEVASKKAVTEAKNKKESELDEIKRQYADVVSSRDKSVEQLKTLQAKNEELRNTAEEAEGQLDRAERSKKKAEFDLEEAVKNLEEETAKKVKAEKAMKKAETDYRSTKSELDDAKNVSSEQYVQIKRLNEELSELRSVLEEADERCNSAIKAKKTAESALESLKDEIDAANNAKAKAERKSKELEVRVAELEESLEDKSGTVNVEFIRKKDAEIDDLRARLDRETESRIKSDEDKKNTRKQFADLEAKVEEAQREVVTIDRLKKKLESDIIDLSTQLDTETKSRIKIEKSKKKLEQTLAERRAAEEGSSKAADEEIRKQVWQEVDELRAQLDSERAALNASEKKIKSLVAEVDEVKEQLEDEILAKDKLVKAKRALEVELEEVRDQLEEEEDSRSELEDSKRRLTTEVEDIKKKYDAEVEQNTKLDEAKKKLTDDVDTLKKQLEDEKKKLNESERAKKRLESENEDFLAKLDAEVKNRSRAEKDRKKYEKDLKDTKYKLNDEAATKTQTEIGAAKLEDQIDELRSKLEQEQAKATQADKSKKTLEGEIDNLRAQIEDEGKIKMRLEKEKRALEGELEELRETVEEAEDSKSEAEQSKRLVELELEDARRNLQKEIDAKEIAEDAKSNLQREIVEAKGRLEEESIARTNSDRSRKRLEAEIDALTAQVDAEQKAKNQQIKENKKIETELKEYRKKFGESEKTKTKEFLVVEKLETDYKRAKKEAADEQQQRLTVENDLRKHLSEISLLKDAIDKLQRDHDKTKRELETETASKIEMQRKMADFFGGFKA
# procedure details: actomyosin steady state ATPase measurement, Dictyostelium myosin
# Assay type: biochemical
# experimental setup: read-out: % inhibition at 50 μM (or 100 μM if racemate) Dicty
Each entry below carries its recorded inhibition at 50 µM.
Reply numerically in %, unit not repeated.

O=C1c2ccncc2N=C2N(c3ccc(N4CCOCC4)cc3)CCC12O (centres unmarked) [Compound 248]	7
O=C1c2cccnc2N=C2N(c3ccccc3)CCC12O (centres unmarked) [Compound 189]	0
O=C1c2ccsc2N=C2N(c3ccc(CO)cc3)CC[C@@]12O [Compound 216]	58
CN(C)c1ccc(N2CCC3(O)C(=O)c4ccncc4N=C23)cc1 (centres unmarked) [Compound 251]	1

# next molecule below
**Query** Recorded inhibition at 50 µM of Cc1cc2c(s1)N=C1N(c3ccccc3)CCC1(O)C2=O (centres unmarked) [Compound 198] , please.
**Result** 96

====

# target entity: isolated porcine cardiac ventricular myocardium (cardiac) (Sus scrofa)
# Construct: isolated porcine cardiac ventricular myocardium (cardiac); from tissue; host or cells: porcine cardiac ventricle
# procedure details: actomyosin steady state ATPase measurement, cardiac myosin
# Type: biochemical
# experimental setup: read-out: % inhibition at 50 μM (or 100 μM if racemate) cardiac; 50 μM (100 μM if racemate); ATPase activity
# Text: […]; (ii) the concentration required for semi-maximal inhibition.
Catalogue of molecules with associated inhibition at 50 µM
Dear colleague, please return just the value in %, with no unit written.

Example results:
O=C1c2ccncc2N=C2N(c3ccc(N4CCOCC4)cc3)CCC12O (stereo not shown) [Compound 248]	1
Cc1cc2c(s1)N=C1N(c3ccccc3)CCC1(O)C2=O (stereo not shown) [Compound 198]	89
Cc1ccc(N2CCC3(O)C(=O)c4cc(C)sc4N=C23)cc1 (stereo not shown) [Compound 235]	70
COc1ccc(N2CCC3(O)C(=O)c4cc(C)sc4N=C23)cn1 (stereo not shown) [Compound 230]	93
O=C1c2ccsc2N=C2N(c3ccc(OC(F)(F)F)cc3)CC[C@@]12O [Compound 212]	93
Cc1cc2c(s1)N=C1N(c3cccs3)CCC1(O)C2=O (stereo not shown) [Compound 229]	87
O=C1c2ccncc2N=C2NCCC12O (stereo not shown) [Compound 255]	7
Cc1cc2c(s1)N=C1NCCC1(O)C2=O (stereo not shown) [Compound 231]	5

**Query** Provide the documented inhibition at 50 µM with isolated porcine cardiac ventricular myocardium (cardiac) (Sus scrofa) as the system for CC(=O)c1ccc(N2CC[C@@]3(O)C(=O)c4ccsc4N=C23)cc1 [Compound 214]
**Result** 73

**Query** Similarly, Cc1cc2c(s1)N=C1N(c3ccc(N(C)C)cc3)CCC1(O)C2=O (stereo not shown) [Compound 250] ?
**Result** 64

====

# target entity: isolated smooth muscle myosin (UniProt P10587)
# Sequence (P10587 whole entry): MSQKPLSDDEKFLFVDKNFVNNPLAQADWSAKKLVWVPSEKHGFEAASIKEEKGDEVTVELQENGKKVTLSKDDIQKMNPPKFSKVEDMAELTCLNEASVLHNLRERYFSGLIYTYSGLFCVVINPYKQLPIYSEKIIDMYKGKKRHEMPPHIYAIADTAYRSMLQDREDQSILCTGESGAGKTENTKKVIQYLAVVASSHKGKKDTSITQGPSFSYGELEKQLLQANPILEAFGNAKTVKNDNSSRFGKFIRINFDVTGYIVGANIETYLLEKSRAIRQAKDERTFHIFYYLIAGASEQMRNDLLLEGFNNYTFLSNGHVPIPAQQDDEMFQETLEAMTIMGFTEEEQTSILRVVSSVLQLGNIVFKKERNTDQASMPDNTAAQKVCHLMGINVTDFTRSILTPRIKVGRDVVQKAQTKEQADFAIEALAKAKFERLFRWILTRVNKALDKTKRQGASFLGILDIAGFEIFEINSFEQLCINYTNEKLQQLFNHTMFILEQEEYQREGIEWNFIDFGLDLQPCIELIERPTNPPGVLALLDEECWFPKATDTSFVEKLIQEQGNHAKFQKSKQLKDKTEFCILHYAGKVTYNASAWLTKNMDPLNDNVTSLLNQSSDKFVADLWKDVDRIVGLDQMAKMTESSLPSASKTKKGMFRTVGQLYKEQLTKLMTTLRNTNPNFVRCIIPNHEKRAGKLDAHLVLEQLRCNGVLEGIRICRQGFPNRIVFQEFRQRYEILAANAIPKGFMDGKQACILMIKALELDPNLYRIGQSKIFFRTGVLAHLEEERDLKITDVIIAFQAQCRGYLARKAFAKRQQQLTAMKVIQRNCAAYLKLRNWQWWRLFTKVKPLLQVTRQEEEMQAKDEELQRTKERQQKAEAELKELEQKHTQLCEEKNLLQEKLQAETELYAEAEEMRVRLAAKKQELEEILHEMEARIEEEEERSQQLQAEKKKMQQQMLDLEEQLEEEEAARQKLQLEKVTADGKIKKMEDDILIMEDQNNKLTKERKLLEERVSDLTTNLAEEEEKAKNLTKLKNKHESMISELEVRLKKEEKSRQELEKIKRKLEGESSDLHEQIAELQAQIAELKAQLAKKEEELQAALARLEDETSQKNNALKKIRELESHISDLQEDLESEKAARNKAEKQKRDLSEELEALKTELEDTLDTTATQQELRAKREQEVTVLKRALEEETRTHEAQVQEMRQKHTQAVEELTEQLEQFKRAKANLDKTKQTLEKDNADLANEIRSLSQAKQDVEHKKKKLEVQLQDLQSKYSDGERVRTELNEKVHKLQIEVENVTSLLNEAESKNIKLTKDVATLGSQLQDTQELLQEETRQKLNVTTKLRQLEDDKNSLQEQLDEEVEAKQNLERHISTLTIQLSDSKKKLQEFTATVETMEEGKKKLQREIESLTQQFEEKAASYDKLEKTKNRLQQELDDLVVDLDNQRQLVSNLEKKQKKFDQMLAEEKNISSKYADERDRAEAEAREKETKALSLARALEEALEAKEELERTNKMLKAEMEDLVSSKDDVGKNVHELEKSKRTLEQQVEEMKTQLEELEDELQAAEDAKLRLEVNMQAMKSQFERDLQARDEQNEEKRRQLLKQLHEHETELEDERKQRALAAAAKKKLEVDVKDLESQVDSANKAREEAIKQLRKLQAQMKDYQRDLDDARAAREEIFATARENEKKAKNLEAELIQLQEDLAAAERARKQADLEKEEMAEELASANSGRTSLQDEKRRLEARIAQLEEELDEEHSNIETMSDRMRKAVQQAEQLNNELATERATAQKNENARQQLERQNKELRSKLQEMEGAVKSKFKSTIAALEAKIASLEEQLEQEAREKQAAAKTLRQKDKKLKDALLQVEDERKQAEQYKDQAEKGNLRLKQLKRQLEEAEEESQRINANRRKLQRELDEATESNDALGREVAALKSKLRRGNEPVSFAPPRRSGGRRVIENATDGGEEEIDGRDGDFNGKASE
# Assay type: biochemical, chamois
# experimental setup: maximum value of inhibition of ATPase activity
Class true: % inhibition. complete Smooth at least 40%. Class false: % inhibition. complete Smooth below 40%.

**Query** Evaluate "COc1ccc(N2CC[C@@]3(O)C(=O)c4ccsc4N=C23)cn1" : % inhibition. complete Smooth at minimum 40%?
**Result** false

**Query** Ok, now O=C1c2ccncc2N=C2N(c3ccccc3)CCC12O (stereo not drawn)
**Result** true

**Query** // same read-out, input: Cc1cc2c(s1)N=C1NCCC1(O)C2=O (stereo not drawn)
**Result** false

**Query** // query: CN(C)c1ccc(N2CCC3(O)C(=O)c4ccncc4N=C23)cc1 (stereo not drawn)
**Result** true

**Query** Would you mind doing O=C1c2ccsc2N=C2N(c3ccccc3)CCC12O (stereo not drawn) as well?
**Result** true

====

# target entity: isolated porcine cardiac ventricular myocardium (cardiac) (Sus scrofa)
# Construct: isolated porcine cardiac ventricular myocardium (cardiac); from tissue; host or cells: porcine cardiac ventricle
# procedure details: actomyosin steady state ATPase measurement, cardiac myosin
# Format: biochemical
# experimental setup: maximum value of inhibition of ATPase activity
Reported % inhibition. complete cardiac by item:
Give just the numeric value; % need not be written.

A selection of reference data follows.
O=C1c2ccsc2N=C2N(c3cccs3)CC[C@@]12O [Compound 218]	79
Cc1cc2c(s1)N=C1N(c3ccc(N)cc3)CCC1(O)C2=O (stereo not drawn) [Compound 221]	79

Please examine the following record next.
**Query** Field: % inhibition. complete cardiac (isolated porcine cardiac ventricular myocardium (cardiac) (Sus scrofa)). Entry: Nc1ccc(N2CC[C@@]3(O)C(=O)c4ccsc4N=C23)cc1 [Compound 210]
**Result** 82

====

# target entity: recombinant human non-muscle myosin 2 NM2C (Homo sapiens, UniProt Q7Z406)
# procedure details: actomyosin steady state ATPase measurement, NM2C
# Assay type: biochemical
# experimental setup: concentration required for semi-maximal inhibition of ATPase
Readings of log10(IC50) for the listed compounds
In plain terms, each number is the log10 of measured IC50 in µM.

Field: example entries. Status: answers known.
Cc1cc2c(s1)N=C1N(c3ccc(CC#N)cc3)CCC1(O)C2=O (stereo not shown) [Compound 226]	0.18
Cc1cc2c(s1)N=C1N(c3cccs3)CC[C@@]1(O)C2=O [Compound 208]	0.23
O=C1c2ccsc2N=C2N(c3cccs3)CC[C@@]12O [Compound 218]	1.64
Cc1cc2c(s1)N=C1N(c3ccc(N4CCOCC4)cc3)CCC1(O)C2=O (stereo not shown) [Compound 220]	0.26
O=C1c2ccsc2N=C2N(c3ccc(N4CCOCC4)cc3)CCC12O (stereo not shown) [Compound 188]	0.60
Nc1ccc(N2CC[C@@]3(O)C(=O)c4ccsc4N=C23)cc1 [Compound 210]	0.72

**Query** What value of log10(IC50) has been recorded for this entry: Cc1cc2c(s1)N=C1N(c3cccs3)CCC1(O)C2=O (stereo not shown) [Compound 229]
**Result** 0.04

**Query** Cc1cc2c(s1)N=C1N(c3ccccc3)CCC1(O)C2=O (stereo not shown) [Compound 198] ?
**Result** 0.83

**Query** Lookup COc1ccc(N2CCC3(O)C(=O)c4cc(C)sc4N=C23)cn1 (stereo not shown) [Compound 230]
**Result** 0.36

**Query** What do you get for N#CCc1ccc(N2CC[C@@]3(O)C(=O)c4ccsc4N=C23)cc1 [Compound 215] ?
**Result** 1.28
